Values compiled from patent US20060183909A1.

Overview of reported % inhibition of XA binding at 10 μM* across a group of molecules:
Tested on: xanthurenic acid receptor
Assay: Screening: displacement of [3H]-XA binding to synaptic membranes at a fixed concentration
Settings: compound at 10 μM; 200 nM [3H]-XA, synaptic membranes; xanthurenic acid set arbitrarily to 100%
Description: If this concentration produces the same or greater displacement than the same concentration of non-radiolabelled XA, then an IC50 is determined. […] The incubation time is 25 min. […] The filters are placed in scintillation vials to which 5 ml of Rotiszint® (Roth) are added and the vials are counted in a Beckman LS6000sc liquid scintillation counter. […] The percentage inhibition of binding that the synthetic compounds produce is calculated for each compound in relation to its positive control.
# unit: % | format: bare number

Cl.O=C(O)c1cc(O)c2cccc(Nc3ccccn3)c2n1 [Compound 109b]; 112

Exercise: Specify the recorded % inhibition of XA binding at 10 μM* for CCCc1cc(O)c2nc(C(=O)O)cc(O)c2c1 [Compound 19r] , system: xanthurenic acid receptor.
Key: 58.1

Exercise: Lab note: record % inhibition of XA binding at 10 μM* of CN(c1ccccc1)c1cccc2c(O)cc(C(=O)O)nc12.Cl [Compound 106b] tested on xanthurenic acid receptor.
Key: 29

Exercise: Write down measured % inhibition of XA binding at 10 μM* (xanthurenic acid receptor) for this molecule. O=C(O)c1cc(O)c2cccc(O)c2n1 [Xanthurenic acid, reference compound]
Key: 100

Exercise: GET % inhibition of XA binding at 10 μM* where system = xanthurenic acid receptor and item = Cl.O=C(O)c1cc(O)c2cccc(N3CCOCC3)c2n1 [Compound 104b]
Key: 40

Exercise: State measured % inhibition of XA binding at 10 μM* of the molecule O=C(O)c1nc2c(O)cccc2[nH]c1=O [Compound 59c] with xanthurenic acid receptor.
Key: 97
